The reported numbers originate from the supplement of paper PMC10681739.

- experimental target: ETS1 (UniProt P14921)
- Sequence: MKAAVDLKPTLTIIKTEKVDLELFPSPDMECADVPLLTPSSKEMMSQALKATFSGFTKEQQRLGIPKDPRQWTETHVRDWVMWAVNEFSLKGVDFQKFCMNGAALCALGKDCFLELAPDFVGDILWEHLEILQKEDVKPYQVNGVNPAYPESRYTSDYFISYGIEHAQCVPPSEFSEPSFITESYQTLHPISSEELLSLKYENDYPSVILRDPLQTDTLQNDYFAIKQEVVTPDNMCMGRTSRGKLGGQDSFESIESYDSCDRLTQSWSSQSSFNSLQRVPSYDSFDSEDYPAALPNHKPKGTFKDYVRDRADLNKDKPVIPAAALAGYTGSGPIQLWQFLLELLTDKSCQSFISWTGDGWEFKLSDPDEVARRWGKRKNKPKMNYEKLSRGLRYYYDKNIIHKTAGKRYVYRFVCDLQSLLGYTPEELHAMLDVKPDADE
- experiment notes: TF binding intensity (PBM fluorescence), negative control probe (arbitrary fluorescence units); higher = stronger binding
readout type: TF binding intensity

ACCCTGAGCCCTCTCCCGCTCCCTGGGTCTCAGCCT (protein concentration 10 nM)
98.1
GAAATCACGGGACCCCGAGCGGTTGGAGATCTGCCA (protein concentration 10 nM)
91.7
AACAGCCCCCTGAACTGCAGGGTGTGACTGTTAGCC (protein concentration 10 nM)
140
CAGGTGGATGACTCAGCTGGAGAACAAAGTGGCTTC (protein concentration 10 nM)
122
GTATTTTGGGCGATAACACTTTCTCTACTTCTAAAA (protein concentration 10 nM)
116
GCAGCTCTAGTTTCTACCACACCAATGGGAGGGATC (protein concentration 1 nM)
320
TAGTCCTGGAAAGGTCATGTCAACCCTCCTGCATAT (protein concentration 10 nM)
115
CAGGCTGTGGTTTCCATCATGAACACGTGATCCAGC (protein concentration 10 nM)
127
GGGGCCTCGAAGGTCCTCCTGGACTGCAAGAGAGGA (protein concentration 10 nM)
131
GCTCGCCTACCCACTGATTGCCAGTGTCCTGGGTGA (protein concentration 10 nM)
107
TTGTGTTCTTATCAAATTATTAAGATTTTAGGTGAG (protein concentration 10 nM)
133
AGAAGCTTGGCTTGGTCTGCGCCTCCTCCCGTGCCT (protein concentration 10 nM)
101
ATGTTTTCGGTTCTTAGGACCCAGGTGCTCACCACA (protein concentration 10 nM)
106
GAGCAGGAGAAAATGTGTCTGAGAAAGAGCTAGGAG (protein concentration 10 nM)
128
ATAATGGAAAGCGAAACCGCAGATTAAGCAGGGACT (protein concentration 1 nM)
398
TTCAAAGCACATTCACCCACATGATCCTATTGATCT (protein concentration 1 nM)
468
CTCGCGGCGCACTCCCAGAGGCTGGGGGGCCGGGGC (protein concentration 10 nM)
183
